All figures here come from ChEMBL document CHEMBL1201862.

System: Streptococcus sp. 'group A'
Experiment: Streptococcus pyogenes SK(-)GAS viability under kanamycin – luminescence, BacTiterGlo, confirmation, counter-screen for streptokinase expression inhibitor project, dose response (AID 1900)
Assay type: functional, organism-based
Activity calls are given as the source filed them. Cut-off read from the data, not from the text of the source: actives have a measured EC50 and inactives only a lower limit.
// reported EC50 per item

INSERT INTO assay_data (molecule, observation_type, measured) VALUES
  ('Cc1ccc2nc(N3C(=O)C(O)=C(C(=O)c4ccco4)C3c3cccs3)sc2c1 (stereo unspecified)', 'EC50', '2.82 µM (active)');

Query block: Which EC50 is reported for this molecule? Cc1cc(C(=O)Nc2nc(-c3ccccn3)cs2)ccc1[N+](=O)[O-]
Result block: 0.471 µM (active)

Query block: Which EC50 is reported for this molecule? O=C(Nc1ccc(-c2csc(Nc3ccccc3)n2)cc1)c1cccc(C(F)(F)F)c1
Result block: > 150 µM (not active)

Query block: Which EC50 is reported for this molecule? O=C(NC(=S)NNC(=O)c1ccccc1O)c1ccc(F)cc1
Result block: 3.21 µM (active)

Query block: Which EC50 is reported for this molecule? Cc1onc(-c2ccccc2)c1C(=O)NC(=S)NNC(=O)c1ccc(O)cc1O
Result block: 6.86 µM (active)

Query block: Which EC50 is reported for this molecule? O=C(Nc1ccc(F)c(Cl)c1)Nc1csc2ccccc12
Result block: 6.52 µM (active)
